Below, each of the molecules is paired with its reported IC50 value.
- Target under test: Fibroblast growth factor receptor 1 (Homo sapiens)
- Sequence (P11362 whole entry): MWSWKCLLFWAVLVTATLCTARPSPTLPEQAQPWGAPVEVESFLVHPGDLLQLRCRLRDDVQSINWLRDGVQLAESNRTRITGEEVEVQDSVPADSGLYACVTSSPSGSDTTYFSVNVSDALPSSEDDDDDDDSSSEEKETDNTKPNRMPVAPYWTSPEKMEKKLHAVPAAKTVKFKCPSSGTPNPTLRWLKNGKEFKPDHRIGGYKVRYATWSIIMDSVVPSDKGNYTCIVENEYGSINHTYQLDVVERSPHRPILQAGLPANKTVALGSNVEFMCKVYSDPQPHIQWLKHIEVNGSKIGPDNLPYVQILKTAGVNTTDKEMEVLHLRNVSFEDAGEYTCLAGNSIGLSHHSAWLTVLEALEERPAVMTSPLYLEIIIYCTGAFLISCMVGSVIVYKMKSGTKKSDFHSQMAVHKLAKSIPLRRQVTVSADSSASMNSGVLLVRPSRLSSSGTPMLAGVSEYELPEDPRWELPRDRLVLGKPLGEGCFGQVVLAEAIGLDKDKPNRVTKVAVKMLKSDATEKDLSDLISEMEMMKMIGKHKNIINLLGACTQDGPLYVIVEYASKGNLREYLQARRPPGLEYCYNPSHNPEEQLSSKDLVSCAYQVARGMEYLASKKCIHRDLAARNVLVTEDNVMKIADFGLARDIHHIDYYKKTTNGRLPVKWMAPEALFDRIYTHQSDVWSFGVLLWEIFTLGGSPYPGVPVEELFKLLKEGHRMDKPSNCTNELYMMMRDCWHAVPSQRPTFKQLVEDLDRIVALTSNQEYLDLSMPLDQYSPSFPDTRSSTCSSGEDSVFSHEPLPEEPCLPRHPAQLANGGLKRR
- Procedure summary: Inhibitory concentration evaluated against fibroblast growth factor receptor 1.

Please review the following examples before continuing.
| Smiles code | Data value |
| --- | --- |
| Cn1c(=O)c(-c2c(Cl)cccc2Cl)cc2cnc(Nc3ccc(OCCN4CCCCC4)cc3)nc21 | 39 nM |
| Cn1c(=O)c(-c2c(Cl)cccc2Cl)cc2cnc(Nc3cccnc3)nc21 | 150 nM |
| CCNCCOc1ccc(Nc2ncc3cc(-c4c(Cl)cccc4Cl)c(=O)n(C)c3n2)cc1 | 66 nM |
| CN(C)c1ncc2cc(-c3c(Cl)cccc3Cl)c(=O)n(C)c2n1 | > 50000 nM |
| Cn1c(=O)c(-c2c(Cl)cccc2Cl)cc2cnc(N)nc21 | 1300 nM |

If you can, please state the reported IC50 value of "CCN(CC)CCOc1cccc(Nc2ncc3cc(-c4c(Cl)cccc4Cl)c(=O)n(C)c3n2)c1" .
32 nM

IC50 lookup needed for "Cn1c(=O)c(-c2c(Cl)cccc2Cl)cc2cnc(NCc3cccnc3)nc21" , thanks.
3150 nM

----------
Assay system Epidermal growth factor receptor (Homo sapiens, UniProt P00533); read-out recorded as IC50.

| Smiles code | IC50 |
| --- | --- |
| Cn1c(=O)c(-c2c(Cl)cccc2Cl)cc2cnc(NCCO)nc21 | > 5 µM |
| Cn1c(=O)c(-c2c(Cl)cccc2Cl)cc2cnc(NCCc3ccccn3)nc21 | > 5 µM |

Could you now consider this next molecule?
Give the measured IC50 of "Cn1c(=O)c(-c2c(Cl)cccc2Cl)cc2cnc(NCc3cccnc3)nc21" .
> 5 µM

----------
- Target under test: UniProt:P00533
Endpoint label: IC50

The cases that follow already have their IC50 on record.
| Smiles code | Target under test | Data value |
| --- | --- | --- |
| Cn1c(=O)c(-c2c(Cl)cccc2Cl)cc2cnc(NCCCN3CCOCC3)nc21 | UniProt:P00533 | > 5 µM |
| Cn1c(=O)c(-c2c(Cl)cccc2Cl)cc2cnc(NCc3ccccc3)nc21 | UniProt:P00533 | > 50 µM |
| Cn1c(=O)c(-c2c(Cl)cccc2Cl)cc2cnc(NC3CCCCC3)nc21 | UniProt:P00533 | > 50 µM |

Then this compound:
Observed IC50 on UniProt:P00533 for "Cn1c(=O)c(-c2c(Cl)cccc2Cl)cc2cnc(Nc3ccc(Cl)cc3)nc21" , please.
> 5 µM
